Values from patent US20120040977A1

# System: HCV genotype 1b replicon
# assayProtocol: HCV replicon assay (HCV 1b_Huh-Luc/Neo-ET cell line, luciferase readout)
# Type: cell-based
# settings: Hepatitis C virus; bicistronic genotype 1b replicon in Huh 7 cells, 72 h incubation, luciferase enzyme activity; read-out: Inhibition of HCV genotype 1b
Please go through the items and note down their EC50.

Qu. Suppose we examine the molecule CC(C)(C)OC(=O)N[C@@H](C(=O)N1CCC[C@H]1C(=O)NCc1ccc(-c2ccc(-c3cnc([C@@H]4CCCN4C(=O)[C@H](NC(=O)OC(C)(C)C)c4ccccc4)[nH]3)cc2)cc1)c1ccccc1 [Compound 33] ; what EC50 value has been reported?
Ans. < 1 nM

Qu. Now consider C[C@H](NC(=O)[C@@H]1CCCN1C(=O)[C@H](NC(=O)N1CCN(C)CC1)c1ccccc1)c1ccc(-c2ccc(-c3cnc([C@@H]4CCCN4C(=O)[C@H](NC(=O)N4CCN(C)CC4)c4ccccc4)[nH]3)cc2)cc1 [Compound 36] and answer again.
Ans. 1 to 9.9 nM

Qu. Now consider COC(=O)N[C@H](C(=O)N1CCC[C@H]1C(=O)Nc1ccc(-c2ccc(-c3cnc([C@@H]4CCCN4C(=O)[C@@H](NC(=O)OC)C4CCOCC4)[nH]3)cc2)cc1)C1CCOCC1 [Compound 110] and answer again.
Ans. 1 to 9.9 nM

Qu. Now consider COC(=O)N[C@H](C(=O)N[C@@H](C)c1ncc(-c2ccc(-c3ccc(C(=O)NC[C@@H]4CCCN4C(=O)[C@@H](NC(=O)OC)C(C)C)cc3)cc2)[nH]1)C(C)C [Compound 88] and answer again.
Ans. < 1 nM

Qu. Now consider C[C@@H](NC(=O)[C@@H]1CCCN1C(=O)[C@H](NC(=O)N1CCOCC1)c1ccccc1)c1ccc(-c2ccc(-c3cnc([C@@H]4CCCN4C(=O)[C@H](NC(=O)N4CCOCC4)c4ccccc4)[nH]3)cc2)cc1 [Compound 41] and answer again.
Ans. 1 to 9.9 nM

Qu. Now consider COC(=O)N[C@@H](C(=O)N1CCC[C@H]1c1ncc(-c2ccc(-c3ccc(C(=O)NC[C@@H]4CCCN4C(=O)[C@@H](c4ccccc4)N4CCCCC4)cc3)cc2)[nH]1)c1ccccc1 [Compound 64] and answer again.
Ans. < 1 nM

Qu. Now consider O=C(N[C@@H](C(=O)N1CCC[C@H]1c1ncc(-c2ccc(Oc3ccc(-c4cnc([C@@H]5CCCN5C(=O)[C@H](NC(=O)C5CC5)c5ccccc5)[nH]4)cc3)cc2)[nH]1)c1ccccc1)C1CC1 [Compound 54] and answer again.
Ans. < 1 nM

Qu. Now consider CC(C)[C@@H](NC(=O)C1CC1)C(=O)N1CCOC[C@H]1C(=O)Nc1ccc(-c2ccc(-c3cnc([C@@H]4COCCN4C(=O)[C@H](NC(=O)C4CC4)C(C)C)[nH]3)cc2)cc1 [Compound 25] and answer again.
Ans. 1 to 9.9 nM

Qu. Now consider O=C(NC[C@@H]1CCCN1C(=O)[C@H](NC(=O)N1CCOCC1)c1ccccc1)c1ccc(-c2ccc(-c3cnc([C@@H]4CCCN4C(=O)[C@H](NC(=O)N4CCOCC4)c4ccccc4)[nH]3)cc2)cc1 [Compound 56] and answer again.
Ans. < 1 nM

###

Please go through the items and note down their EC50.
# System: HCV genotype 1b replicon
# assayProtocol: HCV replicon assay (HCV 1b_Huh-Luc/Neo-ET cell line, luciferase readout)
# Format: cell-based
# settings: Hepatitis C virus; bicistronic genotype 1b replicon in Huh 7 cells, 72 h incubation, luciferase enzyme activity; read-out: Inhibition of HCV genotype 1b

Qu. Suppose we examine the compound COC(=O)N[C@H](C(=O)N1CCC[C@H]1c1ncc(-c2ccc(Oc3cccc(-c4cnc([C@@H]5CCCN5C(=O)[C@@H](NC(=O)OC)C(C)C)[nH]4)c3)cc2)[nH]1)C(C)C ; what EC50 value has been reported?
Ans. < 1 nM

Qu. Now consider COC(=O)N[C@@H](C(=O)N1CCC[C@H]1c1ncc(-c2ccc(-c3ccc(C(=O)NC[C@@H]4CCCN4C(=O)[C@@H](c4ccccc4)N4CCOCC4)cc3)cc2)[nH]1)c1ccccc1 and answer again.
Ans. < 1 nM

Qu. Now consider COC(=O)N[C@@H](C(=O)N1CCC[C@H]1C(=O)Nc1ccc(-c2ccc(-c3cnc([C@@H]4CCCN4C(=O)[C@H](NC(=O)OC)c4ccccc4)[nH]3)cn2)cc1)c1ccccc1 and answer again.
Ans. < 1 nM
